Listed below: log10 of Ki values for each entry.
# target desc: Melanin-concentrating hormone receptor 1 (Homo sapiens, UniProt Q99705)
# Sequence (Q99705 whole entry): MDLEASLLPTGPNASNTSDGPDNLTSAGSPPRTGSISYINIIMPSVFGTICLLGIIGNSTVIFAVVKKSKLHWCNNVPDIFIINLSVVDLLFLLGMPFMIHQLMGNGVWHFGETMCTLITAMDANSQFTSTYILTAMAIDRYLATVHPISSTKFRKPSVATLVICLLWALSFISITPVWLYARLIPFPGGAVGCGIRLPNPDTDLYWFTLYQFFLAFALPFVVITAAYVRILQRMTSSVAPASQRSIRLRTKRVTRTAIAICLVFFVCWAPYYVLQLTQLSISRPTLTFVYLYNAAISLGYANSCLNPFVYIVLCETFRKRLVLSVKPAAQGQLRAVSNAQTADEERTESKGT
# assay procedure: Antagonist activity at MCHR1
// do not treat as linear: log10 of Ki, unit nM

[[record]]
molecule = "NCc1ncc([C@]23CC[C@@H](N(CCCN4CC5CC4CN5)C(=O)Nc4ccc(F)c(C(F)(F)F)c4)C2C3)s1 (some centres not stated)"
meas_value = 1.86


query: Identify the reported log10 of Ki for the following entry. NCc1ncc([C@]23CC[C@@H](N(CCCN4CC[C@@H](O)C4)C(=O)Nc4ccc(F)c(C(F)(F)F)c4)C2C3)s1 (some centres not stated)
result: 1.23

query: Indicate the recorded log10 of Ki value for this molecule: NCc1cnc([C@]23CC[C@@H](N(CCN4CCCC4)C(=O)Nc4ccc(F)c(C(F)(F)F)c4)CC2C3)s1 (some centres not stated)
result: 2.63

query: Note log10 of Ki for the molecule shown: NCc1ncc([C@@]23CC[C@H](N(CCCN4CC[C@@H](O)C4)C(=O)Nc4ccc(F)c(C(F)(F)F)c4)[C@@H]2C3)s1
result: 2.22

query: Give reported log10 of Ki value for NCc1ncc([C@]23CC[C@@H](N(CCN4CCCC4)C(=O)Nc4ccc(F)c(C(F)(F)F)c4)C2C3)s1 (some centres not stated)
result: 2.03

query: Indicate its recorded log10 of Ki; the molecule in question is C[C@@H]1CN[C@@H](C)CN1CCCN(C(=O)Nc1cc(Cl)nc(Cl)c1)[C@H]1CC[C@]2(c3cnc(CN)s3)C[C@H]12
result: 0.60

query: Output log10 of Ki of C[C@@H]1CN(CCCN(C(=O)Nc2cc(Cl)nc(Cl)c2)[C@H]2CC[C@]3(c4cnc(CN)s4)C[C@H]23)[C@@H](C)CN1
result: 0.79

###

The molecules listed here are annotated with their inhibition at 5 ug/ml.
# target desc: hERG (KCNH2) (Homo sapiens)
# Sequence (Q12809 whole entry): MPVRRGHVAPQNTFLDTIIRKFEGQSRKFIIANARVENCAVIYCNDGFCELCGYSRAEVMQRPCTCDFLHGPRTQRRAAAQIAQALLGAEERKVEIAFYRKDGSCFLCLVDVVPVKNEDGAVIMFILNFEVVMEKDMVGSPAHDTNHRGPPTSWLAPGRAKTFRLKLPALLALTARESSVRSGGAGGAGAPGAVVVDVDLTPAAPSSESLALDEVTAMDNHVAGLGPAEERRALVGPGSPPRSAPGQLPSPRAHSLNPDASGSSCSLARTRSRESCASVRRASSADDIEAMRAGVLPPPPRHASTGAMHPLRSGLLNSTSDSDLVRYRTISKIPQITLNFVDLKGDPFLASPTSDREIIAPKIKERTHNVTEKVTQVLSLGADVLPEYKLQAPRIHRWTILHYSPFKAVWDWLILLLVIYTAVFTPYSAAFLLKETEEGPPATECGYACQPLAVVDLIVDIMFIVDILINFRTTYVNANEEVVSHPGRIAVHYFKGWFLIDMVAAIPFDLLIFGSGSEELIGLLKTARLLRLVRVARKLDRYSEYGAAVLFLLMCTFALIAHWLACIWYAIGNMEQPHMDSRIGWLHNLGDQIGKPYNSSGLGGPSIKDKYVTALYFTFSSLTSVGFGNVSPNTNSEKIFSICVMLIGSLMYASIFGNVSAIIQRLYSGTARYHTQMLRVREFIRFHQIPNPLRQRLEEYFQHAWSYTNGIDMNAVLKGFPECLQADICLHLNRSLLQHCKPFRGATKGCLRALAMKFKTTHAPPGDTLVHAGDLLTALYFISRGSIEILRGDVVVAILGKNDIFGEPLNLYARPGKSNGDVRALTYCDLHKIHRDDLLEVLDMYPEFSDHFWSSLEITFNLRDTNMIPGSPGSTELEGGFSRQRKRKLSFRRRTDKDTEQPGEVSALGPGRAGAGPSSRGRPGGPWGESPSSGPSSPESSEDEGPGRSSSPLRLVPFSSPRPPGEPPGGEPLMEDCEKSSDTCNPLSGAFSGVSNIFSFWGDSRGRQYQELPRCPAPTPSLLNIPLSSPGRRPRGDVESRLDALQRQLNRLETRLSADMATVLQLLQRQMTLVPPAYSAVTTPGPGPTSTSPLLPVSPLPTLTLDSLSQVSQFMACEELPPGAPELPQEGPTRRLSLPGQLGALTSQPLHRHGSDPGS
# assay procedure: Inhibition of hERG at 5 ug/ml by rubidium efflux assay
# Assay type: toxicity
Only the number, expressed in %, is required.

[[record]]
molecule = "C[C@@H]1CN[C@@H](C)CN1CCCN(C(=O)Nc1cc(Cl)nc(Cl)c1)[C@H]1CC[C@@]2(c3cnc(CN)s3)C[C@@H]12"
unit_symbol = "%"
meas_value = 17

[[record]]
molecule = "NCc1ncc([C@]23CC[C@@H](N(CCN4CCCC4)C(=O)Nc4ccc(F)c(C(F)(F)F)c4)C2C3)s1 (some centres not stated)"
unit_symbol = "%"
meas_value = 16

[[record]]
molecule = "C[C@@H]1CN(CCCN(C(=O)Nc2cc(Cl)nc(Cl)c2)[C@H]2CC[C@]3(c4cnc(CN)s4)C[C@H]23)[C@@H](C)CN1"
unit_symbol = "%"
meas_value = -12

[[record]]
molecule = "N#Cc1cccc([C@]23CC[C@@H](N(CCN4CC[C@@H](O)C4)C(=O)Nc4ccc(F)c(Cl)c4)CC2C3)c1 (some centres not stated)"
unit_symbol = "%"
meas_value = 80

[[record]]
molecule = "C[C@@H]1CN(CCCN(C(=O)Nc2cc(Cl)nc(Cl)c2)[C@@H]2CC[C@]3(c4cnc(CN)s4)CC23)[C@@H](C)CN1 (some centres not stated)"
unit_symbol = "%"
meas_value = 3


query: Tell me inhibition at 5 ug/ml reported for NCc1ncc([C@]23CC[C@@H](N(CCCN4CC5CC4CN5)C(=O)Nc4ccc(F)c(C(F)(F)F)c4)C2C3)s1 (some centres not stated)
result: 14

query: Return inhibition at 5 ug/ml (reported value) for this molecule: C[C@@H]1CN[C@@H](C)CN1CCCN(C(=O)Nc1cc(Cl)nc(Cl)c1)[C@H]1CC[C@]2(c3cnc(CN)s3)C[C@H]12
result: 22

query: For NCc1ncc(C2=CCC(N(CCN3CCCC3)C(=O)Nc3ccc(F)c(Cl)c3)CC2)s1 (configuration not stated) , write its inhibition at 5 ug/ml.
result: 10

query: Given NCc1ncc([C@]23CC[C@@H](N(CCCN4CC[C@H](O)C4)C(=O)Nc4ccc(F)c(C(F)(F)F)c4)C2C3)s1 (some centres not stated) , respond with its inhibition at 5 ug/ml.
result: -4

query: Consider the molecule NCc1ncc([C@]23CC[C@@H](N(CCCN4CC[C@@H](O)C4)C(=O)Nc4ccc(F)c(C(F)(F)F)c4)C2C3)s1 (some centres not stated) . State its measured inhibition at 5 ug/ml.
result: -4

query: Annotate the molecule N#Cc1cccc([C@]23CC[C@@H](N(CCCN4CC[C@@H](O)C4)C(=O)Nc4ccc(F)c(Cl)c4)[C@H]2C3)c1 with its measured inhibition at 5 ug/ml.
result: 86

query: Give inhibition at 5 ug/ml for the following molecule: NCc1ncc([C@]23CC[C@@H](N(CCN4CC[C@H](O)C4)C(=O)Nc4ccc(F)c(C(F)(F)F)c4)C2C3)s1 (some centres not stated)
result: 8

query: Specify reported inhibition at 5 ug/ml for the molecule shown: NCc1ncc([C@@]23CC[C@H](N(CCCN4CC[C@@H](O)C4)C(=O)Nc4ccc(F)c(C(F)(F)F)c4)[C@@H]2C3)s1
result: 6

query: Return reported inhibition at 5 ug/ml. Input molecule: C[C@@H]1CN(CCCN(C(=O)Nc2ccc(F)c(C(F)(F)F)c2)[C@@H]2CC[C@]3(c4cnc(CN)s4)CC23)[C@@H](C)CN1 (some centres not stated)
result: -8

query: Please indicate inhibition at 5 ug/ml recorded for NCc1cnc([C@]23CC[C@@H](N(CCN4CCCC4)C(=O)Nc4ccc(F)c(C(F)(F)F)c4)CC2C3)s1 (some centres not stated)
result: 19

query: Output inhibition at 5 ug/ml of C[C@@H]1CN(CCCN(C(=O)Nc2cc(Cl)nc(Cl)c2)[C@H]2CC[C@@]3(c4cnc(CN)s4)C[C@@H]23)[C@@H](C)CN1
result: -13

query: Specify reported inhibition at 5 ug/ml for the molecule shown: NCc1ncc([C@]23CC[C@H](N(CCCN4CC[C@@H](O)C4)C(=O)Nc4ccc(F)c(C(F)(F)F)c4)[C@H]2C3)s1
result: 8

###

Reported pKi is given for each of the following compounds.
# target desc: Melanin-concentrating hormone receptor 1 (Homo sapiens, UniProt Q99705)
# assay procedure: Antagonist activity at MCHR1
Please note pKi is a logarithmic value: minus log10 of concentration in mol/L. Answer with that number alone.

query: Please give the documented pKi of NCc1ncc([C@]23CC[C@@H](N(CCCN4CC[C@H](O)C4)C(=O)Nc4ccc(F)c(C(F)(F)F)c4)C2C3)s1 (stereo partly drawn)
result: 7.35

###

# target desc: Melanin-concentrating hormone receptor 1 (Homo sapiens)
# assay procedure: Antagonist activity at MCHR1
readout kind: Ki
Value and unit, in that order.

[[record]]
compound = "N#Cc1cccc([C@]23CC[C@@H](N(CCCN4CC[C@@H](O)C4)C(=O)Nc4ccc(F)c(Cl)c4)[C@H]2C3)c1"
meas_value = "22 nM"

[[record]]
compound = "C[C@@H]1CN[C@@H](C)CN1CCCN(C(=O)Nc1cc(Cl)nc(Cl)c1)[C@H]1CC[C@@]2(c3cnc(CN)s3)C[C@@H]12"
meas_value = "171 nM"

[[record]]
compound = "C[C@@H]1CN(CCCN(C(=O)Nc2ccc(F)c(C(F)(F)F)c2)[C@@H]2CC[C@]3(c4cnc(CN)s4)CC23)[C@@H](C)CN1 (some centres not stated)"
meas_value = "19 nM"

[[record]]
compound = "C[C@@H]1CN(CCCN(C(=O)Nc2cc(Cl)nc(Cl)c2)[C@H]2CC[C@@]3(c4cnc(CN)s4)C[C@@H]23)[C@@H](C)CN1"
meas_value = "117 nM"


query: GET Ki where system = Melanin-concentrating hormone receptor 1 (Homo sapiens) and item = NCc1ncc([C@]23CC[C@H](N(CCCN4CC[C@@H](O)C4)C(=O)Nc4ccc(F)c(C(F)(F)F)c4)[C@H]2C3)s1
result: 6.6 nM

query: Tell me its Ki on Melanin-concentrating hormone receptor 1 (Homo sapiens): C[C@@H]1CN(CCCN(C(=O)Nc2cc(Cl)nc(Cl)c2)[C@@H]2CC[C@]3(c4cnc(CN)s4)CC23)[C@@H](C)CN1 (some centres not stated)
result: 13.1 nM

query: Provide measured Ki on Melanin-concentrating hormone receptor 1 (Homo sapiens) for NCc1ncc([C@]23CC[C@@H](N(CCN4CC[C@H](O)C4)C(=O)Nc4ccc(F)c(C(F)(F)F)c4)C2C3)s1 (some centres not stated) please.
result: 99 nM
